Assembled from different publications: Ki for UniProt:P48039.
Sequence (P48039 whole entry): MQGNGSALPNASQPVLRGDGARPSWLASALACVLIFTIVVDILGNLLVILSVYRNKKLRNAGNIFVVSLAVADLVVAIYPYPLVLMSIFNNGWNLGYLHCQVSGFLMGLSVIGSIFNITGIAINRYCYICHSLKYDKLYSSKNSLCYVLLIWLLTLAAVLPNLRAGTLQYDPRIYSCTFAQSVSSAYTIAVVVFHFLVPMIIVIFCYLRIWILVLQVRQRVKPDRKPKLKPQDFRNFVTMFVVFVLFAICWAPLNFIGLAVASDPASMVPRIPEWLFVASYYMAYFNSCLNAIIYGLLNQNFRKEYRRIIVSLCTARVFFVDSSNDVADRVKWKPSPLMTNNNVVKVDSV
property_measured: Ki (nM)

Illustrative cases are given below, each with its answer.
CCCC(=O)N[C@H]1CCN(c2cccc(OC)c2)C1 3.7
CCCOc1ccc(OC)cc1CCCNC(C)=O 400
C=CC(=O)NCCc1c(Cc2cccc(OC)c2)oc2ccc(OC)cc12 55
CC(C)C(=O)N[C@@H]1CCN(c2cccc3c2CCO3)C1 129

[A] COc1ccc2[nH]cc(Cc3nc(C)no3)c2c1
[B] CCNC(=O)NCCc1cccc2ccc(OC)nc12
Exercise: Compare reported Ki values for A and B . Which is lower? // return label of chosen record
Solution: B
